# TEST METHOD NOTES: NCI Yeast Anticancer Drug Screen. Data for the rad50EPP+ strain (AID 151);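 note: 0% = growth of vehicle-treated control cultures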
# CONDITION DESCRIPTION: S. cerevisiae rad50 mutant strain, at 100.0 µM, hits give high values
About 79,000 compounds went through this panel and 15% of them were active in at least one assay; those are over-represented in the sample as a whole. The source made the active and inactive calls. Cut-off read from the data, not from the text of the source: active = growth inhibition above about 70%; inactive = the rest.
Listing of entries alongside the reported growth inhibition.

Below: 2 compounds and their reported growth inhibition.
• S=C(N/N=C(/c1ccccc1)c1ccccn1)N1CCCCCC1 = 6% (inactive)
• C=C1CC(Cn2cc(Br)c(=O)[nH]c2=O)(c2ccc(-c3ccccc3)cc2)OC1=O (stereo not drawn) = 16% (inactive)

Incoming: Write down growth inhibition measured for item COc1cc(/C=C2\CCc3ccccc3C2=O)cc(OC)c1OC
Outgoing: 40% (inactive)

----------
Listing of entries alongside the reported growth inhibition.
# TEST METHOD NOTES: NCI Yeast Anticancer Drug Screen. Data for the mec2-1 strain (AID 157)
# CONDITION DESCRIPTION: S. cerevisiae mec2-1 strain, at 50.0 µM, hits give high values
The panel holds about 79,000 compounds, 15% with a hit somewhere; the sample as a whole holds those more often.
Quick note: give the figure in %, leave out the unit.

• O=C(O)c1ccccc1-c1ccccc1C(=O)Nc1ccc2c(c1)Cc1ccccc1-2 = 73.5
• Cn1c2ccccc2c(=O)c2cc(NC(=O)CCCCC(=O)Nc3ccc4c(c3)c(=O)c3ccccc3n4C)ccc21 = 12.4
• COc1ccc(/C(C)=N/OC(=O)c2c(-c3ccccc3Cl)noc2C)cc1CN1CCOCC1 = 14.3
• Cc1[nH]c2ccccc2c1C(c1ccc(N)cc1)c1c(C)[nH]c2ccccc12 = 96.4

Incoming: Write down growth inhibition measured for item CCC(=O)Oc1c(Cl)cc(Cl)c2ccccc12
Outgoing: -8.5

----------
# TEST METHOD NOTES: NCI Yeast Anticancer Drug Screen. Data for the rad18 strain (AID 177)
# CONDITION DESCRIPTION: S. cerevisiae rad18 mutant growth inhibition; at 1.2 µM; hits give high values
Compounds without any hit were thinned out: in the full panel of roughly 79,000, 15% have a hit.
Listing of entries alongside the reported growth inhibition.
Quick note: give the figure in %, leave out the unit.

Incoming: Write down growth inhibition measured for item CCOC(=O)c1cc([N+](=O)[O-])cc([N+](=O)[O-])c1Sc1ncnc2nc[nH]c12
Outgoing: -18

Incoming: Write down growth inhibition measured for item c1ccc(-c2nc3cccnc3s2)cc1
Outgoing: 3

Incoming: Write down growth inhibition measured for item CCC(=O)OCCn1c2nc(=O)[nH]c(=O)c-2nc2cc(C)c(C)cc21
Outgoing: -3

Incoming: Write down growth inhibition measured for item CCCC/C=C/C(CC)(C(=O)OCC)C(=O)OCC
Outgoing: -1

Incoming: Write down growth inhibition measured for item CC(C)OC(=O)Oc1ccccc1OC(=O)OC(C)C
Outgoing: -3

Incoming: Write down growth inhibition measured for item Cn1ccnc1Oc1ccc(Cl)cc1
Outgoing: -7

Incoming: Write down growth inhibition measured for item COC(=O)c1ccc([N+](=O)[O-])c(O)c1
Outgoing: -9

----------
Listing of entries alongside the reported growth inhibition.
# TEST METHOD NOTES: NCI Yeast Anticancer Drug Screen. Data for the sgs1 strain (AID 173);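 note: 0% = growth of vehicle-only control cultures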
# CONDITION DESCRIPTION: S. cerevisiae sgs1 mutant, at 11.0 µM, hits give high values
Compounds without any hit were thinned out: in the full panel of roughly 79,000, 15% have a hit.
Quick note: give the figure in %, leave out the unit.

* CCCCCCCCCCCCCCCCCCOCC(O)COP(=O)(O)OCC1OC(n2cc(F)c(=O)[nH]c2=O)CC1O (centres undefined) | 81
* O=C(c1ccc(Cl)cc1)C1OC12C(=O)Nc1ccccc12 (centres undefined) | 99
* O=[N+]([O-])c1cccc2nc3ccccc3c(NCCCN3CCOCC3)c12 | 96

Kindly consider the entry below.
Incoming: Write down growth inhibition measured for item CCCCCCCCC/C=C/C=C/C(=O)NCC(=O)NC1C(O)C(O)C(Nc2ncnc3nc[nH]c23)OC1C(O)CO (centres undefined)
Outgoing: 14
